test: pKa determination by titration with H2SO4 in water; type: physicochemical; settings: 0.5 N H2SO4, water as solvent
Assay Metric: pKa

# Compound, Observed Value
records = [
    ("CC(O)CNC(CO)(CO)CO (stereo not drawn) [TA-1PO]", 8),
    ("CC(C)(C)CC(C)(C)N(CC(O)CO)CC(O)CO (stereo not drawn)", 9),
    ("OCCN(CCO)C1CCCCC1O (stereo not drawn) [DEA-CyHO]", 8.6),
    ("CCC(O)CN(CC(O)CC)C(C)(C)CO (stereo not drawn) [AMP-2BO]", 9.1),
    ("CCC(O)CNC(CC)(CO)CO (stereo not drawn) [AEPD-1BO]", 8.7),
    ("CC(C)OCC(O)CNC(CO)(CO)CO (stereo not drawn) [TA-IPM]", 7.8),
]

Data provenance is patent US9605163B2.
